target: FimH (Escherichia coli); construct: endogenous in cells; host or cells: E. coli UTI89 whole bacteria, agglutinating guinea pig red blood cells; assay type: cell-based; details: concentration reducing bacterial agglutination of guinea pig red blood cells by greater than 90%; UTI89 bacteria;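 also: concentration in nM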
Sequence (P08190 24-167, other chains not shown): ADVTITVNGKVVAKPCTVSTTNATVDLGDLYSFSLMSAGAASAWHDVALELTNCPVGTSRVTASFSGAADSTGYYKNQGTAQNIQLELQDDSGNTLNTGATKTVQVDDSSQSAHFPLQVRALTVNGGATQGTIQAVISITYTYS
assay.metric: HAI titer EC > 90

CCCc1c(F)cc(-c2ccc([C@@H](O)[C@H]3O[C@H](CO)[C@@H](O)[C@H](O)[C@@H]3O)c(C)c2)cc1F :: “++++” (<50 “++++”)
Cc1cc(-c2ccc(C(F)(F)F)c(Cl)c2)ccc1[C@@H](O)[C@H]1O[C@H](CO)[C@@H](O)[C@H](O)[C@@H]1O :: “++++” (<50 “++++”)
Cc1cc(-c2cc(F)c(C(C)O)c(F)c2)ccc1[C@@H](O)[C@H]1O[C@H](CO)[C@@H](O)[C@H](O)[C@@H]1O (single isomer, unassigned) [Example 108] :: “++++” (<50 “++++”)
CCc1c(F)cc(-c2ccc([C@@H](O)[C@H]3O[C@H](CO)[C@@H](O)[C@H](O)[C@@H]3O)c(C)c2)cc1F :: “++++” (<50 “++++”)
OC[C@H]1O[C@H]([C@H](O)c2ccc(-c3cc(F)cc(F)c3)cc2C(F)(F)F)[C@@H](O)[C@@H](O)[C@@H]1O :: “++++” (<50 “++++”)
Cc1cc(-c2ccc([C@@H](O)[C@H]3O[C@H](CO)[C@@H](O)[C@H](O)[C@@H]3O)c(C)c2)c(F)cc1Cl :: “+++” (50-200 “+++”)
Cc1cc(Cl)c(-c2ccc([C@@H](O)[C@H]3O[C@H](CO)[C@@H](O)[C@H](O)[C@@H]3O)c(C)c2)cc1F :: “+++” (50-200 “+++”)
OC[C@H]1O[C@H]([C@H](O)c2c(F)cc(-c3cc(F)cc(F)c3)cc2C(F)(F)F)[C@@H](O)[C@@H](O)[C@@H]1O :: “++++” (<50 “++++”)
Cc1cc(-c2ccc(C(F)(F)F)c(C)c2)ccc1[C@@H](O)[C@H]1O[C@H](CO)[C@@H](O)[C@H](O)[C@@H]1O :: “++++” (<50 “++++”)
Cc1cc(-c2cc(C3CC3)ccc2F)ccc1[C@@H](O)[C@H]1O[C@H](CO)[C@@H](O)[C@H](O)[C@@H]1O :: “+++” (50-200 “+++”)
Cc1cc(-c2cccc(F)c2F)ccc1[C@@H](O)[C@H]1O[C@H](CO)[C@@H](O)[C@H](O)[C@@H]1O :: “+++” (50-200 “+++”)
COc1cc(-c2ccc([C@@H](O)[C@H]3O[C@H](CO)[C@@H](O)[C@H](O)[C@@H]3O)c(C)c2)cc(C(F)(F)F)c1 :: “++++” (<50 “++++”)
COCc1c(F)cc(-c2ccc([C@@H](O)[C@H]3O[C@H](CO)[C@@H](O)[C@H](O)[C@@H]3O)c(C)c2)cc1F :: “++++” (<50 “++++”)
